MEASUREMENT_TARGET: human epidermal growth factor receptor 2 (Homo sapiens, UniProt P04626)
ASSAY_EXPLANATION: SPR
TEST_READOUT: kon (M⁻¹ s⁻¹)
Kindly answer with a numeric value in M⁻¹ s⁻¹, unit omitted.

As a guide, the following entries are already answered.
hu2C4-g2.2 IgG1 (antibody, V domains shown) VH: EVQLVESGGGLVQPGGSLRLSCAASGFTFTDYTMDWVRQAPGKGLEWVADVNPNSGGSIYNQRFKGRFTLSVDRSKNTLYLQMNSLRAEDTAVYYCARSSRPPWFFDYWGQGTLVTVSS VL: DIQMTQSPSSLSASVGDRVTITCKASQDVSIGVAWYQQKPGKAPKLLIYSASYRYTGVPSRFSGSGSGTDFTLTISSLQPEDFATYYCQQYYIYPYTFGQGTKVEIK
65000
hu2C4-g2.1 IgG1 (antibody, V domains shown) VH: EVQLVESGGGLVQPGGSLRLSCAASGFTFTDYTMDWVRQAPGKGLEWVADVNPNSGGSIYNQRFKGRFTLSVDRSKNTLYLQMNSLRAEDTAVYYCARSSTPPFFMDYWGQGTLVTVSS VL: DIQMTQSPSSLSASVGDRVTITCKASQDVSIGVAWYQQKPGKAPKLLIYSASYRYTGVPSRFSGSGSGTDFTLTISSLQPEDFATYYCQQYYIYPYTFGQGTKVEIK
39000

Then this binder:
Form field: reported kon of hu2C4-g3.1 IgG1 (antibody, V domains shown) VH: EVQLVESGGGLVQPGGSLRLSCAASGFTFTDYTMDWVRQAPGKGLEWVADVNPNSGGSIYNQRFKGRFTLSVDRSKNTLYLQMNSLRAEDTAVYYCARLMSYGYFDYWGQGTLVTVSS VL: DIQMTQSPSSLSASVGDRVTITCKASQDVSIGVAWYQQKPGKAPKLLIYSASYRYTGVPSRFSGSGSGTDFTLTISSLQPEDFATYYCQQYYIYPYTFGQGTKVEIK 63000

All figures here come from paper PMC7039645.
